Answer each item with its documented binding signal.
- MEASURED TARGET: GST-Nv-NF-kB (Ser allele) (Nematostella vectensis, UniProt A7UNT2 2-411)
- Sequence: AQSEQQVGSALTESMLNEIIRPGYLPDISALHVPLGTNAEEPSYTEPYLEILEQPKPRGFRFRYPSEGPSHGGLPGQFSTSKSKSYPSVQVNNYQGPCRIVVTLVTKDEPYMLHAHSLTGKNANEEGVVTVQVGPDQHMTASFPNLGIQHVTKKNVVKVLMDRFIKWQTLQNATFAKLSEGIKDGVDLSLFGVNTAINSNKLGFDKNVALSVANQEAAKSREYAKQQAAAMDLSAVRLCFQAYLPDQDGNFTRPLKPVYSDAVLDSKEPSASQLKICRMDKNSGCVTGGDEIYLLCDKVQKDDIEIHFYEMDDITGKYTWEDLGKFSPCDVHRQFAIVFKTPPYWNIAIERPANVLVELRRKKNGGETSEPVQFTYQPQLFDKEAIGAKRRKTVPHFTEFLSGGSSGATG
- TEST SUMMARY: protein-binding microarray (PBM); PBM: ~300 nM protein, 6 mM HEPES pH 7.8, 80 mM KCl, 0.5 mM EDTA, 0.5 mM EGTA, 6% glycerol, 35 ng/ul poly-dIdC, 1% milk, 1 h, room temperature; high values mean tight binding
- EXPERIMENTAL SETUP: dsDNA, one strand shown
Record the value in z-score, omitting the unit from your answer.

Data point: CCGATTAACATCATAAGGGGTGTTGATGTTAATCGGGTCTTGATTCGCTTGACGCTGCTG ; binding signal = 1.09

For this sequence ( CCGATTAACATCAGGGATCACCCTGATGTTAATCGGGTCTTGATTCGCTTGACGCTGCTG ), measured binding signal is 1.43

The sequence identified as CCGATTAACATCAGGCCGTCCCCTGATGTTAATCGGGTCTTGATTCGCTTGACGCTGCTG registered its binding signal at 3.43

Consider CCGATTAACATCAGGGATTTTCATGATGTTAATCGGGTCTTGATTCGCTTGACGCTGCTG . Its measured binding signal is 4.23

The recorded binding signal for entry CCGATTAACATCACTCCCCCCCCTGATGTTAATCGGGTCTTGATTCGCTTGACGCTGCTG equals 4.8

What the record says about CCGATTAACATCAAGGGGGATACTGATGTTAATCGGGTCTTGATTCGCTTGACGCTGCTG : binding signal is 5.52

For reference, reported binding signal for CCGATTAACATCACGGGACTTCCTGATGTTAATCGGGTCTTGATTCGCTTGACGCTGCTG stands at 4.98

Recorded binding signal (sequence CCGATTAACATCAGGAGGCCCCCTGATGTTAATCGGGTCTTGATTCGCTTGACGCTGCTG ): 1.79

The sequence CCGATTAACATCAGGACGTTCCCTGATGTTAATCGGGTCTTGATTCGCTTGACGCTGCTG showed binding signal equal to 1.14

* * *

Field: binding signal. Provide a value for each of the sequences that follow.
- MEASURED TARGET: GST-Hu-p50 (Homo sapiens, UniProt P19838 7-356)
- Sequence (P19838 7-356): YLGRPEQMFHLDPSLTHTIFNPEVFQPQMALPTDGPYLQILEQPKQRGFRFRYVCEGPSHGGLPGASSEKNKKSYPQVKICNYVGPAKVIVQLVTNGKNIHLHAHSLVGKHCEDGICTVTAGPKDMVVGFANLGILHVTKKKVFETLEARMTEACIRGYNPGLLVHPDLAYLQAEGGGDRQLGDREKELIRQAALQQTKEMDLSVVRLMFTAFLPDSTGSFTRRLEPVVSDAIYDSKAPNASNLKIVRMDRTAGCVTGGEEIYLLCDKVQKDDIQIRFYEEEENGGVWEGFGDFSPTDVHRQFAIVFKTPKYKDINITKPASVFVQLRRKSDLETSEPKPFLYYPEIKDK
- TEST SUMMARY: protein-binding microarray (PBM); PBM: ~300 nM protein, 6 mM HEPES pH 7.8, 80 mM KCl, 0.5 mM EDTA, 0.5 mM EGTA, 6% glycerol, 35 ng/ul poly-dIdC, 1% milk, 1 h, room temperature; Ap Aiptasia and Nv Nematostella (sea anemones) / Co Capsaspora / Aq Amphimedon (sponge) / Dm Drosophila / Hu human; RHD is the Rel homology domain; high values mean tight binding
- EXPERIMENTAL SETUP: dsDNA, one strand shown
Answer format: numeric, z-score implied, no suffix.

The reported binding signal value, GST-Hu-p50 (Homo sapiens, UniProt P19838 7-356), for CCGATTAACATCAGTCCCTAAGCTGATGTTAATCGGGTCTTGATTCGCTTGACGCTGCTG reads 2.51

Here CCGATTAACATCAGGGAAATATATGATGTTAATCGGGTCTTGATTCGCTTGACGCTGCTG was tested on GST-Hu-p50 (Homo sapiens, UniProt P19838 7-356), and its binding signal came to 4.03

The reported GST-Hu-p50 (Homo sapiens, UniProt P19838 7-356) binding signal of CCGATTAACATCAGGAAATTTGATGATGTTAATCGGGTCTTGATTCGCTTGACGCTGCTG is 1

Entry CCGATTAACATCAGGACTTTACCTGATGTTAATCGGGTCTTGATTCGCTTGACGCTGCTG ; assay system GST-Hu-p50 (Homo sapiens, UniProt P19838 7-356); binding signal recorded at 2.67

The sequence CCGATTAACATCAAGTTTACCCCTGATGTTAATCGGGTCTTGATTCGCTTGACGCTGCTG , tested on GST-Hu-p50 (Homo sapiens, UniProt P19838 7-356), showed binding signal of 3.2

Item CCGATTAACATCAATGGGATTCCTGATGTTAATCGGGTCTTGATTCGCTTGACGCTGCTG was tested on GST-Hu-p50 (Homo sapiens, UniProt P19838 7-356); the reported binding signal is 1.23

Here CCGATTAACATCAAGGTACCCCCTGATGTTAATCGGGTCTTGATTCGCTTGACGCTGCTG was tested on GST-Hu-p50 (Homo sapiens, UniProt P19838 7-356), and its binding signal came to 3.34

Short answer on GST-Hu-p50 (Homo sapiens, UniProt P19838 7-356) for CCGATTAACATCACGGGAAGTCCTGATGTTAATCGGGTCTTGATTCGCTTGACGCTGCTG , binding signal: 1.59

Item: CCGATTAACATCAGGGAAATAACTGATGTTAATCGGGTCTTGATTCGCTTGACGCTGCTG | System: GST-Hu-p50 (Homo sapiens, UniProt P19838 7-356) | binding signal: 3.76

With GST-Hu-p50 (Homo sapiens, UniProt P19838 7-356) as the test system, CCGATTAACATCAGGGGGTGATATGATGTTAATCGGGTCTTGATTCGCTTGACGCTGCTG showed binding signal of 3.97

For CCGATTAACATCAGGGGAGGTACTGATGTTAATCGGGTCTTGATTCGCTTGACGCTGCTG on GST-Hu-p50 (Homo sapiens, UniProt P19838 7-356), measured binding signal was 3.17

// binding signal (GST-Hu-p50 (Homo sapiens, UniProt P19838 7-356)) for CCGATTAACATCAGAATTCCCACTGATGTTAATCGGGTCTTGATTCGCTTGACGCTGCTG = 3.3

# binding signal measured on GST-Hu-p50 (Homo sapiens, UniProt P19838 7-356) for item CCGATTAACATCAGGGGATCCCATGATGTTAATCGGGTCTTGATTCGCTTGACGCTGCTG = 4.5

binding signal of CCGATTAACATCAGGGTATTTACTGATGTTAATCGGGTCTTGATTCGCTTGACGCTGCTG , assay on GST-Hu-p50 (Homo sapiens, UniProt P19838 7-356), is 5.1

Lab note: sequence CCGATTAACATCAGGGGGGGCACTGATGTTAATCGGGTCTTGATTCGCTTGACGCTGCTG tested on GST-Hu-p50 (Homo sapiens, UniProt P19838 7-356); recorded binding signal was 3.87

The value of binding signal recorded for CCGATTAACATCAGGGATAACCCTGATGTTAATCGGGTCTTGATTCGCTTGACGCTGCTG when tested on GST-Hu-p50 (Homo sapiens, UniProt P19838 7-356) reads 2.62

Log: GST-Hu-p50 (Homo sapiens, UniProt P19838 7-356), sequence CCGATTAACATCAAAAAAAGTACTGATGTTAATCGGGTCTTGATTCGCTTGACGCTGCTG , binding signal = 1.52

Record CCGATTAACATCATAAAATCCCATGATGTTAATCGGGTCTTGATTCGCTTGACGCTGCTG / GST-Hu-p50 (Homo sapiens, UniProt P19838 7-356), binding signal recorded as 3.45

Hey, GST-Hu-p50 (Homo sapiens, UniProt P19838 7-356) data for CCGATTAACATCACACATTTCCCTGATGTTAATCGGGTCTTGATTCGCTTGACGCTGCTG : binding signal came out at 3.2

binding signal on GST-Hu-p50 (Homo sapiens, UniProt P19838 7-356) for CCGATTAACATCAGCGAATTCCCTGATGTTAATCGGGTCTTGATTCGCTTGACGCTGCTG is 3.28

Sample CCGATTAACATCAGGAAAAACCATGATGTTAATCGGGTCTTGATTCGCTTGACGCTGCTG , system: GST-Hu-p50 (Homo sapiens, UniProt P19838 7-356). Its binding signal is 1.05

binding signal for GST-Hu-p50 (Homo sapiens, UniProt P19838 7-356) with input CCGATTAACATCAGGTAATTTACTGATGTTAATCGGGTCTTGATTCGCTTGACGCTGCTG equals 2.79

The measured binding signal that CCGATTAACATCAGGGAAACCCATGATGTTAATCGGGTCTTGATTCGCTTGACGCTGCTG showed for GST-Hu-p50 (Homo sapiens, UniProt P19838 7-356) is 3.11

Observed binding signal on GST-Hu-p50 (Homo sapiens, UniProt P19838 7-356), entry CCGATTAACATCACTAATTTCCCTGATGTTAATCGGGTCTTGATTCGCTTGACGCTGCTG , equals 3.94

binding signal value, target or system GST-Hu-p50 (Homo sapiens, UniProt P19838 7-356), for CCGATTAACATCACATTTTCCCATGATGTTAATCGGGTCTTGATTCGCTTGACGCTGCTG : 3.45

GST-Hu-p50 (Homo sapiens, UniProt P19838 7-356) assay, sequence CCGATTAACATCATGGTGGGAAATGATGTTAATCGGGTCTTGATTCGCTTGACGCTGCTG , recorded binding signal = 2.18

Item: CCGATTAACATCAGGGAACTCCATGATGTTAATCGGGTCTTGATTCGCTTGACGCTGCTG | System: GST-Hu-p50 (Homo sapiens, UniProt P19838 7-356) | binding signal: 1.7

Bench note, GST-Hu-p50 (Homo sapiens, UniProt P19838 7-356): CCGATTAACATCACTCTTTCCCCTGATGTTAATCGGGTCTTGATTCGCTTGACGCTGCTG , binding signal reads 4.08

Query CCGATTAACATCACGGGGGGTAATGATGTTAATCGGGTCTTGATTCGCTTGACGCTGCTG on GST-Hu-p50 (Homo sapiens, UniProt P19838 7-356); binding signal returned: 2.48

// returns binding signal for CCGATTAACATCAGGGGACAACCTGATGTTAATCGGGTCTTGATTCGCTTGACGCTGCTG with GST-Hu-p50 (Homo sapiens, UniProt P19838 7-356); value = 4.2

# value of binding signal, GST-Hu-p50 (Homo sapiens, UniProt P19838 7-356), item CCGATTAACATCAACAGGGAAAATGATGTTAATCGGGTCTTGATTCGCTTGACGCTGCTG = 3.34

Query CCGATTAACATCAGGGATTTCCATGATGTTAATCGGGTCTTGATTCGCTTGACGCTGCTG on GST-Hu-p50 (Homo sapiens, UniProt P19838 7-356); binding signal returned: 3.25

Form field binding signal for item CCGATTAACATCAACGCCCCCCCTGATGTTAATCGGGTCTTGATTCGCTTGACGCTGCTG on GST-Hu-p50 (Homo sapiens, UniProt P19838 7-356): 4.25

Value sought: binding signal, system GST-Hu-p50 (Homo sapiens, UniProt P19838 7-356), item CCGATTAACATCAAATTCCCAGCTGATGTTAATCGGGTCTTGATTCGCTTGACGCTGCTG . Result: 2.81

Tested on GST-Hu-p50 (Homo sapiens, UniProt P19838 7-356), the item CCGATTAACATCATGGGTGGGAATGATGTTAATCGGGTCTTGATTCGCTTGACGCTGCTG showed binding signal equal to 1.32

Value (binding signal, GST-Hu-p50 (Homo sapiens, UniProt P19838 7-356)) for record CCGATTAACATCAAACCCCCCCGTGATGTTAATCGGGTCTTGATTCGCTTGACGCTGCTG = 5.27
